# assay.system: KRAS WT (Homo sapiens (Human), UniProt P01116+P62937)
# Sequence (P01116-2 other isoform, or with tags, fused parts or gaps): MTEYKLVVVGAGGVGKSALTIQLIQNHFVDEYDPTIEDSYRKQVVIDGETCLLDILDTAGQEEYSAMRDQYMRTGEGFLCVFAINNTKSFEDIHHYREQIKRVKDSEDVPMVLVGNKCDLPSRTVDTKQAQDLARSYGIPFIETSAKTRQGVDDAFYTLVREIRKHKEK
# Sequence (P62937 whole entry): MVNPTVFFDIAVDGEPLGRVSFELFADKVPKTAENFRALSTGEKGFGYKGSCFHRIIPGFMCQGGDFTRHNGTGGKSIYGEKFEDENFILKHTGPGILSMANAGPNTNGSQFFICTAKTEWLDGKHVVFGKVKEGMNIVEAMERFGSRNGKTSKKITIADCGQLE
# method.summary: Ras-Raf (BRAF RBD) disruption / FRET / MOA assay, KRAS WT
# Type: biochemical
# details: read-out: IC50* KRAS WT FRET data
Listed here: items and their measured IC50.

INSERT INTO measurements (compound, result) VALUES
  ('C=CC(=O)N(C)C1CCN(C(=O)N(C)[C@H](C(=O)N[C@H]2Cc3nc(cs3)-c3ccc4c(c3)c(c(-c3cccnc3[C@H](C)OC)n4CC)CC(C)(C)COC(=O)[C@@H]3CCCN(N3)C2=O)C(C)C)CC1 (atropisomer, axis not shown)', '0.01 to 0.1 µM'),
  ('CCn1c(-c2cnccc2COC)c2c3cc(ccc31)-c1cncc(c1)C[C@H](NC(=O)[C@H](C(C)C)N(C)C(=O)[C@H]1CCN(C(=O)C#CCN(C)C)C1)C(=O)N1CCC[C@H](N1)C(=O)OCC(C)(C)C2', '> 10 µM'),
  ('C=CC(=O)N1CCO[C@@H]2CCN(C(=O)N(C)[C@H](C(=O)N[C@H]3Cc4nc(cs4)-c4ccc5c(c4)c(c(-c4cccnc4[C@H](C)OC)n5CC)CC(C)(C)COC(=O)[C@@H]4CCCN(N4)C3=O)C(C)C)CC21 (stereo partly shown)', '> 10 µM');

Moving on to another compound below.
Output measured IC50 for this item: CCn1c(-c2cccnc2[C@H](C)OC)c2c3cc(ccc31)-c1csc(n1)C[C@H](NC(=O)[C@H](C(C)C)N1CC[C@@]3(CCN(C(=O)C#CC(C)(C)N(C)C)C3)C1=O)C(=O)N1CCC[C@H](N1)C(=O)OCC(C)(C)C2 (single isomer, unassigned)
> 10 µM

---

Below, each entry is listed alongside its reported pIC50.
# assay.system: KRAS G12S (Homo sapiens (Human), UniProt P01116+P62937, G12S)
# Sequence (P01116-2 other isoform, or with tags, fused parts or gaps G12S): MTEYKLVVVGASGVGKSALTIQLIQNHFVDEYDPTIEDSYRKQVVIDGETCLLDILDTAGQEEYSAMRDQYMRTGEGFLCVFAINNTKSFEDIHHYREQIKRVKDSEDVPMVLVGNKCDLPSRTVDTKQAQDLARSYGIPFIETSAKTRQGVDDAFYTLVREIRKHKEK
# Sequence (P62937 whole entry): as the sequence (P62937 whole entry) above
# method.summary: Ras-Raf (BRAF RBD) disruption / FRET / MOA assay, KRAS G12S
# Type: biochemical
# details: Ras-Raf disruption/FRET/MOA assay; class symbols; read-out: KRAS G12S FRET data IC50
pIC50: −log10 of the molar value.

See these solved cases before continuing.
INSERT INTO assay_data (compound, result) VALUES
  ('C=CC(=O)N(C)[C@@H]1C[C@@H](C)N(C(=O)N(C)[C@H](C(=O)N[C@H]2Cc3nc(cs3)-c3ccc4c(c3)c(c(-c3cccnc3[C@H](C)OC)n4CC)CC(C)(C)COC(=O)[C@@H]3CCCN(N3)C2=O)C(C)C)C1 (atropisomer, axis not shown)', '6.00 to 7.00'),
  ('CO[C@@H](C)c1ncccc1-c1c2c3nc(ccc3n1CC(F)(F)F)-c1cccc(c1)C[C@H](NC(=O)[C@@H](COC1CN(C(=O)C#CC(C)(C)N(C)C)C1)C(C)C)C(=O)N1CCC[C@H](N1)C(=O)OCC(C)(C)C2 (atropisomer, axis not shown)', '< 5.00'),
  ('C=CS(=O)(=O)N1CCC2(CCN([C@H](C(=O)N[C@H]3Cc4cc(O)cc(c4)-c4ccc5c(c4)c(c(-c4cccnc4[C@H](C)OC)n5CC)CC(C)(C)COC(=O)[C@@H]4CCCN(N4)C3=O)C(C)C)C2=O)C1 (stereo partly shown)', '7.00 to 8.00');

Now, please, on to the next compound.
Name the recorded pIC50 of the item C=CC(=O)N1CC[C@H](C(=O)N(C)[C@H](C(=O)N[C@H]2Cc3cc(O)cc(c3)-c3ccc4c(c3)c(c(-c3ccc(CN(C)C)cc3COC)n4CC)CC(C)(C)COC(=O)[C@@H]3CCCN(N3)C2=O)C(C)C)C1 in your answer.
6.00 to 7.00
